B1: Chromodomain-helicase-DNA-binding protein 4, residues 365 to 417; numbered along this chain, Q14839 (parent)
chain: YETDHQDYCEVCQQGGEIILCDTCPRAYHMVCLDPDMEKAPEGKWSCPHCEKE

# Variants of: B1
# test.name: abundance fitness (aPCA) (normalised: wild type 0, dead -1); higher = more abundant; growth selection in yeast, the domain comes from the species named
# measurement.setup: Homo sapiens
parameter.measured: abundance fitness

Problem: Return reported abundance fitness; argument: `H29N`
Solution: -0.491

Problem: So what's the measured abundance fitness for this one? `D34Q`
Solution: -0.257

Problem: For the variant `P41H` , what abundance fitness is on record?
Solution: -0.378

Problem: Which abundance fitness value belongs to `D4C` ?
Solution: 0.071

Problem: Look up abundance fitness: `W45C`
Solution: -0.101

Problem: Can you look up the measured abundance fitness of `V31A` for me?
Solution: 0.121

Problem: Param item = `L33D` ; retrieve measured abundance fitness.
Solution: -1.04

Problem: Entry `W45N` : reported abundance fitness = ?
Solution: -0.051

Problem: Looking for the measured abundance fitness of `Y1N` , can you help?
Solution: -0.028

Problem: abundance fitness lookup needed for `D36E` , thanks.
Solution: 0.13

Problem: What value of abundance fitness has been recorded for this entry: `V31D`
Solution: -0.005

Problem: Look up abundance fitness for this variant: `K39E`
Solution: -0.077

Problem: // returns reported abundance fitness for input `R26D`
Solution: -0.249

Problem: Which abundance fitness is listed for `D4I` ?
Solution: -0.089

Problem: Which abundance fitness value belongs to `C12R` ?
Solution: -0.87

Problem: Find the recorded abundance fitness belonging to `D34V` and report it.
Solution: -0.094

Problem: Look up abundance fitness for this variant: `P25S`
Solution: 0.068

Problem: Return reported abundance fitness; argument: `Q14R`
Solution: 0.162

Problem: What does the data say about its abundance fitness? Entry: `T3C`
Solution: 0.124

Problem: Would you mind telling me what abundance fitness value was observed for `M37S` ?
Solution: 0.079

Problem: # query: abundance fitness of entry `E38M`
Solution: -0.784

Problem: Suppose we examine the variant `A40M` ; what abundance fitness value has been reported?
Solution: 0.043

Problem: Tell me the measured abundance fitness of `C21F` , please.
Solution: -1.11

Problem: Dear colleague, I am looking for the recorded abundance fitness of the following variant: `C24L`
Solution: -1.19

Problem: // query abundance fitness value for entry `D36A`
Solution: -0.079

Problem: Quick one: abundance fitness of `D22G` ?
Solution: -0.021

Problem: Using the record for `E17V` , report its abundance fitness.
Solution: -0.076

Problem: // lookup abundance fitness for `E42Y`
Solution: -0.17

Problem: Which abundance fitness value belongs to `G15S` ?
Solution: -0.013

Problem: If you can, please state the reported abundance fitness value of `Y28I` .
Solution: -0.295

Problem: What measured abundance fitness goes with `Y1C` ?
Solution: 0.19

Problem: Look at this variant and give its reported abundance fitness. `P35T`
Solution: 0.054

Problem: Would you mind telling me what abundance fitness value was observed for `A40H` ?
Solution: 0.33

Problem: I would be grateful if you could share the reported abundance fitness for `M30K` .
Solution: 0.115

Problem: Consider the variant shown here: `K39P` What is its recorded abundance fitness?
Solution: -0.094

Problem: Look up abundance fitness: `C9D`
Solution: -0.777

Problem: Which abundance fitness value is on record for `E17Y` ?
Solution: -0.055

Problem: Which abundance fitness value belongs to `H29K` ?
Solution: -0.943

Problem: Quick one: abundance fitness for `D7A` ?
Solution: -0.095

Problem: For `P25L` , what is its reported abundance fitness?
Solution: -0.044

Problem: Look up abundance fitness: `E38I`
Solution: -0.106

Problem: Item under review: `W45V` . Reported abundance fitness?
Solution: 0.115

Problem: Would you mind telling me what abundance fitness value was observed for `E2D` ?
Solution: 0.033

Problem: Suppose we examine the variant `C12A` ; what abundance fitness value has been reported?
Solution: -0.952

Problem: Sample `C47F` — what was its abundance fitness?
Solution: -0.565

Problem: Consider the variant `D22V` and give its measured abundance fitness.
Solution: -0.065

Problem: # query: abundance fitness of entry `D34L`
Solution: -0.025

Problem: Consider the variant shown here: `H49K` What is its recorded abundance fitness?
Solution: -0.2

Problem: I have this variant here, `A40L` , and I need its recorded abundance fitness.
Solution: 0.095

Problem: Given the variant `E42F` , what is its reported abundance fitness?
Solution: -0.315

Problem: Please look up its abundance fitness: `P35A`
Solution: -0.016

Problem: Value lookup for abundance fitness; key = `K44G`
Solution: 0.164

Problem: # input variant: `S46F` ; wanted: its abundance fitness
Solution: 0.125

Problem: Return reported abundance fitness; argument: `I19F`
Solution: -0.404

Problem: Record request: abundance fitness value, item `G15C`
Solution: -0.524

Problem: Bench note: what abundance fitness did `E2Y` show?
Solution: 0.426

Problem: Report abundance fitness for `I19E` please.
Solution: -0.07

Problem: Quick one: abundance fitness of `T23G` ?
Solution: -0.189

Problem: Which abundance fitness is listed for `E2G` ?
Solution: 0.102

Problem: Which abundance fitness value belongs to `H29P` ?
Solution: -1.1

Problem: Which abundance fitness reading was recorded for the variant `D22A` ?
Solution: 0.056

Problem: Looking for the measured abundance fitness of `C21N` , can you help?
Solution: -0.983

Problem: Quick check: abundance fitness of `L33P` ?
Solution: -0.404

Problem: I am curious: what abundance fitness value has been reported for `G43E` ?
Solution: 0.179

Problem: Data request, read-out abundance fitness, for `E53G`
Solution: -0.252

Problem: I would be grateful if you could share the reported abundance fitness for `Y28K` .
Solution: -0.267

Problem: Given the entry `C47M` , report its measured abundance fitness.
Solution: -0.882

Problem: Need abundance fitness of `H49E` , thanks.
Solution: -0.247

Problem: # input variant: `M30A` ; wanted: its abundance fitness
Solution: -0.064

Problem: What measured abundance fitness goes with `P35W` ?
Solution: -0.236

Problem: Quick one: abundance fitness for `E51P` ?
Solution: -0.007

Problem: Report abundance fitness for `C50D` please.
Solution: -0.17

Problem: Value lookup for abundance fitness; key = `D22L`
Solution: -0.34

Problem: I am curious: what abundance fitness value has been reported for `D4K` ?
Solution: 0.23

Problem: Looking for the measured abundance fitness of `R26V` , can you help?
Solution: -0.226

Problem: Suppose we examine the variant `A27H` ; what abundance fitness value has been reported?
Solution: -0.276

Problem: Looking for the measured abundance fitness of `H5R` , can you help?
Solution: 0.193

Problem: Could you share which abundance fitness value was measured for `D22T` ?
Solution: 0.089

Problem: // returns reported abundance fitness for input `E17I`
Solution: -0.199

Problem: Give its abundance fitness value. Item: `W45M`
Solution: 0.179

Problem: abundance fitness for `I19C` ?
Solution: -0.25

Problem: // abundance fitness lookup, key: `L33G`
Solution: -0.195

Problem: Param item = `G16Q` ; retrieve measured abundance fitness.
Solution: 0.036

Problem: Recorded abundance fitness of `D34S` , please.
Solution: -0.146

Problem: Would you kindly share the measured abundance fitness for `C12H` ?
Solution: -0.948

Problem: Bench note: what abundance fitness did `A40Q` show?
Solution: -0.208

Problem: Quick one: abundance fitness for `D22P` ?
Solution: -0.721

Problem: Fill in the blank: the reported abundance fitness of `S46P` is ____.
Solution: -0.258

Problem: Given `D7V` , state its recorded abundance fitness.
Solution: -0.19

Problem: Requested field: abundance fitness. Item: `D4T`
Solution: -0.168

Problem: Quick one: abundance fitness of `E17A` ?
Solution: -0.149

// provenance: the Human Domainome abundance scans (Beltran et al. 2025)
